IC50 for Poly [ADP-ribose] polymerase 1 (Homo sapiens, UniProt P09874) - collated from the literature.

STRUCTURE_SMILES: CCOC(=O)Nc1nc2cc(-c3n[nH]c(=O)c4ccccc34)ccc2[nH]1
DATA_VALUE: 5 to 10 µM

Go through the items and report each one's IC50.
1. O=c1[nH]nc(Cc2ccc(F)c(P3(=O)CCN(c4ncnc5ccccc45)CC3)c2)c2ccccc12
2. O=c1[nH]c(C2=C[C@H](N3CCC(c4ccc(F)cc4)CC3)CC2)nc2c1CC1(CC2)CC1
3. O=c1[nH]c([C@H]2CC[C@@H](N3CCN(c4ccc(F)cc4)CC3)C2)nc2c1CC1(CC2)CC1

Result:
1. < 0.1 µM
2. 0.001 to 0.5 µM
3. 0.001 to 0.5 µM

---

IC50 for Poly [ADP-ribose] polymerase 1 (Homo sapiens) - collated from the literature.

Solved entries:
COMPOUND: Cc1ccc(N2CCN([C@H]3C=C(c4nc5c(c(=O)[nH]4)CC4(CC5)CC4)CC3)CC2)cc1C
IC50: 501 to 5000 nM
--
COMPOUND: O=C(CCCc1nc2ccccc2c(=O)[nH]1)N1CCC(n2c(=O)[nH]c3ccccc32)CC1
IC50: 1490 nM
--
COMPOUND: CC1(c2cnn3c2[nH]c2cc(F)cc(C(N)=O)c23)CCN(CCF)C1 (stereo not shown)
IC50: 1 to 100 nM
--
COMPOUND: O=c1[nH]c([C@H]2CC[C@H](N3CCN(c4cccc(F)c4)CC3)C2)nc2c1CC1(CC2)CC1
IC50: 1 to 500 nM
--
COMPOUND: O=c1[nH]c(C2=C[C@H](N3CCN(c4cccc(Cl)c4)CC3)CC2)nc2c1CC1(CC2)CC1
IC50: 501 to 5000 nM

Go through the items and report each one's IC50.
1. N#Cc1ccc(N2C[C@@H]3C[C@H]2CN3C2C=C(c3cc4ncccc4c(=O)[nH]3)CC2)cc1 (single isomer, unassigned)
2. O=c1[nH]c(CCCN2CCC(c3ccccc3)CC2)nc2c1CC1(CC2)CC1

Result:
["5.1 to 50 nM", "1 to 500 nM"]

---

pIC50 for Poly [ADP-ribose] polymerase 1 (Homo sapiens) - collated from the literature.
pIC50: −log10 of the molar value.

COMPOUND: Cn1ccc2c(=O)[nH]c(N3CCN(c4ccc(F)cc4)CC3)nc21
pIC50: 5.97

Go through the items and report each one's pIC50.
1. O=c1[nH]c(CCCN2CCN(c3ccc(Cl)cc3)CC2)nc2c1CCCC21CC1
2. O=c1[nH]nc2c3c(cc(F)cc13)NC(C1CCCN1)C2c1ccccc1Cl (stereo not drawn)
3. O=c1[nH]c(C2=C[C@H](N3CCN(c4ncc(Cl)cc4Cl)CC3)CC2)nc2c1CC1(CC2)CC1

Result:
6.30 to 9.00
5.92
6.30 to 9.00

Go through the items and report each one's pIC50.
1. N#Cc1ccc(N2CCN([C@H]3C=C(c4cc5cnccc5c(=O)[nH]4)CC3)CC2)cc1
2. C[C@]1(c2ccc(-n3cc4cccc(C(N)=O)c4n3)c(F)c2)CCCNC1

Result:
1. 8.30 to 9.30
2. 6.30 to 7.00

---

IC50 for Poly [ADP-ribose] polymerase 1 (Homo sapiens, UniProt P09874) - collated from the literature.

Solved entries:
COMPOUND: O=c1[nH]c(C2=C[C@H](N3CCN(c4ccccc4)CC3)CC2)nc2c1CC1(CC2)CC1
DATA_VALUE: 1 to 500 nM
//
COMPOUND: O=c1[nH]c(C2=C[C@@H](N3CC=C(c4ccc(F)cc4)CC3)CC2)nc2c1CC1(CC2)CC1
DATA_VALUE: 1 to 500 nM
//
COMPOUND: N#Cc1ccc(N2CCN([C@H]3C=C(c4cc5ccncc5c(=O)[nH]4)CC3)CC2)cc1
DATA_VALUE: 0.5 to 5 nM
//
COMPOUND: CCOC(=O)c1ccc(N2CCN([C@H]3C=C(c4cc5ncccc5c(=O)[nH]4)CC3)CC2)cc1
DATA_VALUE: 0.5 to 5 nM
//
COMPOUND: CCc1cc2ncc(CN3C[C@H](Oc4ccc(C(=O)NC)cc4)[C@H]3C)cc2[nH]c1=O
DATA_VALUE: > 100 nM

Go through the items and report each one's IC50.
1. CNC(=O)c1ccc(N2CCN([C@H]3C=C(c4nc5c(c(=O)[nH]4)CC4(CC5)CC4)CC3)CC2)c(F)c1
2. NC(=O)c1cc(F)cc2[nH]c3c(-c4ccncc4)cnn3c12
3. CCNC(=O)Nc1nc2cc(-c3n[nH]c(=O)c4ccccc34)ccc2[nH]1
4. [2H][C@@]1(c2ccc(-n3cc4cc(F)cc(C(N)=O)c4n3)c(F)c2)CCCNC1
5. N#Cc1ccc(N2CCN([C@@H]3C=C(c4cc5sccc5c(=O)[nH]4)CC3)CC2)cc1
6. CC(C)(C)OC(=O)N1Cc2cc(N)ccc2CC1c1nc2c(C(N)=O)cccc2[nH]1 (stereo not drawn)
7. CCc1cnc(N2CCN([C@H]3C=C(c4nc5c(c(=O)[nH]4)CC4(CC5)CC4)CC3)CC2)nc1

Result:
1. 1 to 500 nM
2. 101 to 1000 nM
3. > 10000 nM
4. < 100 nM
5. 5.1 to 50 nM
6. > 2000 nM
7. 5000 to 500000 nM

Go through the items and report each one's IC50.
1. O=C(CSc1nc2ccccc2c(=O)[nH]1)N[C@H]1CC[C@H](n2c(=O)[nH]c3cc(Cl)ccc32)CC1
2. CCOC(=O)Nc1nc2cc(-c3n[nH]c(=O)c4ccccc34)cc(Br)c2[nH]1

Result:
1. > 85000 nM
2. 5000 to 10000 nM

Ask: Can you share its IC50? I mean this compound: N#Cc1ccc(N2CCN([C@@H]3CC[C@H](c4cc5ncccc5c(=O)[nH]4)C3)CC2)cc1 (single isomer, unassigned)
Result: 0.5 to 5 nM
